Provide the recorded CC50 at 48 h for the entries that follow.
Experiment: Cytotoxicity against human CEM-GFP cells after 48 hrs by MTT assay
Assay type: cell-based
Give bare numbers, in µM.

Recorded CC50 at 48 h, per entry:
* COc1ccc2c3c(ccc2c1)OCN(c1nc(-c2ccc(F)cc2)cs1)C3 | 24.3
* FC(F)(F)c1ccc(-c2csc(N3COc4ccc5ccccc5c4C3)n2)cc1 | 24.7
* O=C1Nc2ccc(Cl)cc2[C@@](C#CC2CC2)(C(F)(F)F)O1 [EFAVIRENZ] | 40.5
* Cc1cn([C@H]2C[C@H](N=[N+]=[N-])[C@@H](CO)O2)c(=O)[nH]c1=O [ZIDOVUDINE] | 13.1
* COc1ccc2c3c(ccc2c1)OCN(c1nc(-c2ccc(C(F)(F)F)cc2)cs1)C3 | 26.3

Shifting focus to the compound that follows.
*Q* Quick one: CC50 at 48 h of Fc1ccc(-c2csc(N3COc4ccc5ccccc5c4C3)n2)cc1 ?
*A* 25.3
